- Assay target: UniProt Q72547
pIC50: −log10 of the molar value.

| Compound | pIC50 |
| --- | --- |
| COc1ccc(C2C3=C(CC(C)(C)CC3=O)Nc3ccccc3N2C(C)=O)cc1OCc1ccccc1 (configuration not stated) | < 4.49 |
| CC(=O)N1c2ccccc2NC2=C(C(=O)CC(C)(C)C2)C1c1ccc(Cl)cc1Cl (configuration not stated) | < 4.49 |

###

- Assay overview: Cytotoxicity against LTR-Luc transfected human MT4 cells […] after 3 days by ATPLite assay
- Type: cell-based
The following molecules are shown together with reported CC50 at 72 h values.
Experimental endpoint: CC50 at 72 h (µM)

| Molecule | Readout units | Endpoint value |
| --- | --- | --- |
| CC(=O)N1c2ccccc2NC2=C(C(=O)CC(C)(C)C2)C1c1ccc(OCc2ccccc2)cc1 (stereo in doubt; 3) | µM | 32 |
| CC(=O)N1c2ccccc2NC2=C(C(=O)CC(C)(C)C2)C1c1ccc(OCc2ccccc2)c(Cl)c1 (stereo in doubt; 4) | µM | 22.1 |
| CC(=O)N1c2ccccc2NC2=C(C(=O)CC(C)(C)C2)C1c1ccc(Cl)cc1Cl (stereo unspecified) | µM | 32 |
| CC(=O)N1c2ccccc2NC2=C(C(=O)CC(C)(C)C2)C1c1ccc(OCc2ccccc2)cc1Cl (stereo in doubt; 5) | µM | 16.7 |
| CC(=O)N1c2cccc(O)c2NC2=C(C(=O)CC(C)(C)C2)C1c1ccc(OCc2ccccc2)cc1Cl (stereo in doubt; 7) | µM | 17.8 |
| COc1ccc(C2C3=C(CC(C)(C)CC3=O)Nc3ccccc3N2C(C)=O)cc1OCc1ccccc1 (stereo unspecified) | µM | 32 |
